From: patent US20190382504A1

# ASSAYED_TARGET: T1, ESO157 homolog 2 peptide (…)/HLA-A*02:01 on T2 cells (human)
# T1 construct: also called ESO157 H2
# ASSAY_COMMENT: FACS, phage on T2 cells, 50 ug/ml peptide;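 note: binding of phage clones to peptide/MHC complexes detected by flow cytometry after staining with an anti-M13 antibody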
RECORDED_METRIC: MFI

>  <BINDER>
phage clone 35-2, affinity maturation variant of clone #35 (scFv, V domains shown) VH: QVQLVQSGAEVKKPGSSVKVSCKASGDTFSSYYISWVRQAPGQGLEWMGRIIPILGIANYAQKYQGRVTLSADKSTSTSYMELNSLRSEDTAVYYCARDWSYSIDYWGQGTLVTVSS VL: QSVVTQPPSVSAAPGQKVTISCSGSSSNIGNNYVSWYQQLPGTAPKLLIYDNNERPSGIPDRFSGSKSGTSATLGITGLQTGDEADYYCGTWDSSLSAWVFGGGTKLTVLG

>  <MFI>
20.8

$$$$

Turning now to a further record.
Given the binder phage clone 35-19, affinity maturation variant of clone #35 (scFv, V domains shown, also called variant 35-19) VH: QEQLVQSGAEVKKPGSSVKVSCKASGDTFSSYYISWVRQAPGQGLEWMGRIIPILGIANYAQKYQGRVTLSADKSTSTSYMELNSLRSEDTAVYYCARDWSYSIDYWGQGTLVTVSS VL: QSVVTQPPSVSAAPGQKVTISCSGSISNIGNNYVSWYQQLPGTAPKLLIYDNNMRPSGIPDRFSGSKSGTSATLGITGLQTGDEADYYCGTWDSSLSAWVFGGGTKLTVLG , what is its reported MFI?
21.9
